The origin of these recorded values is the domain aggregation screens of Martell et al. (2025).

- ASSAY: soluble fraction after stress (log2 fold change); higher = more stays soluble; pooled small domains, quantitative proteomics
- MEASUREMENT PARAMETERS: stress: 50 degC
MEASURED METRIC: soluble fraction (log2)

- SEQUENCE CODE: "HMPTPRVPMSKQRQILQLLQDGHLSTREIAAALHISKTSVGDIAKAARLAGLDWEAASKLSDEELSARIYK"
  RESULT VALUE: -0.00175
- SEQUENCE CODE: "HMIVVTSPQVTDERIAEIVAFIEKHGVQAHVSRGTDRTVIGIIGKADPVLAEHLRSMQGVENVIKIS"
  RESULT VALUE: -0.0652
- SEQUENCE CODE: "HMGMTRPLFVTDPGLVRIGLVSPIFEKLGSGKLSPQLFDQVKEDPPEQTVFDGVEFARETGIDGVIGFG"
  RESULT VALUE: -0.124
- SEQUENCE CODE: "HMPVEFVKISIKPGHPWENQFVRDIVSLPDLLMVLILRGEERIIPNGNTKILVGDKIVLSALSPG"
  RESULT VALUE: -0.779
- SEQUENCE CODE: "HMNADSLIGENIRISERVSNMDQTGMAVVHGQEWTVRTRNDNEIIEPGEEAKILAISGVKLIVEK"
  RESULT VALUE: -0.119
- SEQUENCE CODE: "HMDSLSGQQGRVLEEINGFLQTGKVLLNGMEWSAVSKQPEDILPVDTEVVVVRVEGAHLVVKKA"
  RESULT VALUE: 0.0592
- SEQUENCE CODE: "HMDYKSNLQEMVQTTKKSVTYELVKEEGPAHDRTFTMNVIVDGIVLGTGTAKSKKEAEQEAAHQALEKKA"
  RESULT VALUE: -0.0398
- SEQUENCE CODE: "HMASSVKAPLPGVILDIKVKVGDTIKNGDTVVILEAMKMENNIHSDKDGVVKSIEVNKGDSVLEGATLLTI"
  RESULT VALUE: -0.0654
